// data source = patent US20230389548A1

Test system: Amaranthus retroflexus (AMARE)
Assay: Post-emergence glasshouse spray test, visual percentage phytotoxicity after 13 days
Format: in vivo
Conditions: B1; 2.5 g/ha post-emergence
Reported AMARE percentage phytotoxicity values are given for each entry in this list.
measurementKind: AMARE percentage phytotoxicity (%)

- molecule: "FC(F)c1cc(-c2c(Cl)cccc2Oc2ncc(Cl)cn2)on1 [A-I]"
  targetOrTestSystem: "Amaranthus retroflexus (AMARE)"
  recordedResult: 98
- molecule: "Nc1c(F)c(-c2ccc3cc[nH]c3c2F)nc(C(=O)O)c1Cl [B-VI]"
  targetOrTestSystem: "Amaranthus retroflexus (AMARE)"
  recordedResult: 73
- molecule: "CS(=O)(=O)c1ccc(C(=O)C2C(=O)CCCC2=O)c(Cl)c1OCCC1OCCO1 [B-II]"
  targetOrTestSystem: "Amaranthus retroflexus (AMARE)"
  recordedResult: 10
- molecule: "CCOC(=O)COc1ncccc1Oc1cc(-n2c(=O)cc(C(F)(F)F)n(C)c2=O)c(F)cc1Cl [B-V]"
  targetOrTestSystem: "Amaranthus retroflexus (AMARE)"
  recordedResult: 100
- molecule: "COc1c(Cl)ccc(-c2nc(C(=O)OCc3ccccc3)c(Cl)c(N)c2F)c1F [B-I]"
  targetOrTestSystem: "Amaranthus retroflexus (AMARE)"
  recordedResult: 65
